Assay Setup: 368.15 K; Liquid; Gas chromatography
Quantity Measured: vapor or sublimation pressure (kPa)
# unit: kPa | format: bare number

Problem: Can you look up the measured vapor or sublimation pressure of C[Si]1(C)O[Si](C)(C)O[Si](C)(C)O[Si](C)(C)O[Si](C)(C)O[Si](C)(C)O[Si](C)(C)O1 for me?
Result: 0.08542

Problem: Can you look up the measured vapor or sublimation pressure of C[Si]1(C)O[Si](C)(C)O[Si](C)(C)O[Si](C)(C)O1 for me?
Result: 5.113

Problem: Can you look up the measured vapor or sublimation pressure of C[Si]1(C)O[Si](C)(C)O[Si](C)(C)O[Si](C)(C)O[Si](C)(C)O[Si](C)(C)O[Si](C)(C)O[Si](C)(C)O1 for me?
Result: 0.02337

----------
Assay Setup: 388.15 K; Liquid; Gas chromatography
Would you mind telling me the reported vapor or sublimation pressure of each entry?
# unit: kPa | format: bare number

Problem: Can you look up the measured vapor or sublimation pressure of C[Si](C)(C)O[Si](C)(C)O[Si](C)(C)O[Si](C)(C)O[Si](C)(C)O[Si](C)(C)O[Si](C)(C)C for me?
Result: 0.149

Problem: Can you look up the measured vapor or sublimation pressure of C[Si](C)(C)O[Si](C)(C)O[Si](C)(C)O[Si](C)(C)O[Si](C)(C)C for me?
Result: 1.36

Problem: Can you look up the measured vapor or sublimation pressure of C[Si](C)(C)O[Si](C)(C)O[Si](C)(C)O[Si](C)(C)O[Si](C)(C)O[Si](C)(C)O[Si](C)(C)O[Si](C)(C)C for me?
Result: 0.04747

----------
Would you mind telling me the reported vapor or sublimation pressure of each entry?
Assay Setup: 438.15 K; Liquid; Gas chromatography
# unit: kPa | format: bare number

Problem: Can you look up the measured vapor or sublimation pressure of C[Si](C)(C)O[Si](C)(C)O[Si](C)(C)O[Si](C)(C)O[Si](C)(C)O[Si](C)(C)C [tetradecamethylhexasiloxane] for me?
Result: 5.364

Problem: Can you look up the measured vapor or sublimation pressure of C[Si](C)(C)O[Si](C)(C)O[Si](C)(C)O[Si](C)(C)O[Si](C)(C)O[Si](C)(C)O[Si](C)(C)O[Si](C)(C)O[Si](C)(C)O[Si](C)(C)O[Si](C)(C)C [tetracosamethylundecasiloxane] for me?
Result: 0.102

Problem: Can you look up the measured vapor or sublimation pressure of C[Si](C)(C)O[Si](C)(C)O[Si](C)(C)O[Si](C)(C)O[Si](C)(C)O[Si](C)(C)O[Si](C)(C)O[Si](C)(C)O[Si](C)(C)C [eicosamethylnonasiloxane] for me?
Result: 0.5281

Problem: Can you look up the measured vapor or sublimation pressure of C[Si](C)(C)O[Si](C)(C)O[Si](C)(C)O[Si](C)(C)O[Si](C)(C)O[Si](C)(C)O[Si](C)(C)O[Si](C)(C)O[Si](C)(C)O[Si](C)(C)C [docosamethyldecasiloxane] for me?
Result: 0.231

Problem: Can you look up the measured vapor or sublimation pressure of C[Si](C)(C)O[Si](C)(C)O[Si](C)(C)O[Si](C)(C)O[Si](C)(C)O[Si](C)(C)O[Si](C)(C)O[Si](C)(C)C [octadecamethyloctasiloxane] for me?
Result: 1.194

The measurements presented in this section are drawn from the NIST ThermoML archive (doi:10.1021/je100835n).
